Assign residual activity to each entry below.
# assay-system: BMX (human)
# assay-notes: radiometric filter-binding kinase assay, Kinase HotSpot
# details: compound 0.5 µM; ATP 10 µM
Record the result as a number with its unit.

Consider the reported residual activity for these compounds:
>>> print(df.to_string())
                              smiles_string  result
0  CS(=O)(=O)CCNCc1ccc(-c2ccc3ncnc(Nc4ccc(OCc5cccc(F)c5)c(Cl)c4)c3c2)o1    105%
1  Cc1cncc2cccc(S(=O)(=O)N3CCCN(C(=O)CN)C[C@H]3C)c12     94%
2  C[C@@H]1CCN(C(=O)CC#N)C[C@@H]1N(C)c1ncnc2[nH]ccc12    111%

Look at each compound and report its residual activity.
1. O=C1NC(=O)c2c1c1c3ccccc3[nH]c1n1cncc21
2. COc1ccc2c(c1)c(C1=C(c3c[nH]c4ccccc34)C(=O)NC1=O)cn2CCCN(C)C

Key:
91.7%
96.3%

Values were extracted from the kinase profiling compilation of Christmann-Franck et al. (2016).
